This listing pairs compounds with measured Plant response rating, Surinam Grass.
Tested on: Surinam grass
Experiment: Test B pre-/postemergence herbicide test
Assay type: in vivo, Urochloa decumbens
Conditions: Postemergence, 500 g ai/ha; visual rating after 13 to 15 days, scale 0 (no effect) to 100 (complete control)
Reported Metric: Plant response rating, Surinam Grass

# Molecule Smiles, Reported Metric, Meas Value
measured = [
    ("CC(=NO)c1cccc(NC(=O)c2cc(C(C)(C)C)nn2C(C)C)c1", "Plant response rating, Surinam Grass", 30),
    ("CCOC(=O)c1cc(NC(=O)c2cc(C(C)(C)C)nn2CC)ccc1C", "Plant response rating, Surinam Grass", 10),
    ("C=Cn1nc(C(C)(C)C)cc1C(=O)Nc1cccc(C(=O)NCC)c1", "Plant response rating, Surinam Grass", 30),
]

---

Tested on: goosegrass
Test: Test C pre-/postemergence herbicide test
Format: in vivo, Eleusine indica
Conditions: 125 g ai/ha; scale 0 (no effect) to 100 (complete control); visual, 12 to 14 days; preemergence
The following molecules are listed with their measured Plant response rating, Goosegrass values.
Reported Metric: Plant response rating, Goosegrass

# Molecule Smiles, Tested Target, Reported Metric, Meas Value
data = [
    ("C=CCNC(=O)c1cccc(NC(=O)c2cc(C(C)(C)C)nn2CC)c1", "goosegrass", "Plant response rating, Goosegrass", 90),
    ("CCn1nc(C(C)(C)C)cc1C(=O)Nc1cc(C(=S)N(C)C)ccn1", "goosegrass", "Plant response rating, Goosegrass", 100),
    ("C=CCNC(=O)c1cccc(NC(=O)c2sc(C(C)(C)C)nc2CC)c1", "goosegrass", "Plant response rating, Goosegrass", 60),
    ("CCn1nc(C(C)(C)C)cc1C(=O)Nc1cccc(SC(F)(F)F)c1", "goosegrass", "Plant response rating, Goosegrass", 20),
]

---

Test system: bermudagrass
Experiment: Test C pre-/postemergence herbicide test
Assay type: in vivo, Cynodon dactylon
Conditions: 125 g ai/ha; scale 0 (no effect) to 100 (complete control); visual, 12 to 14 days; preemergence

# Molecule, Plant response rating, Bermudagrass
data = [
    ("CCNC(=O)c1cccc(NC(=O)c2cc(C3(C)CC3)nn2CC)c1 [Compound 306]", 85),
    ("CCn1nc(C(C)(C)C)cc1C(=O)Nc1cccc(C(N)=O)n1 [Compound 162]", 0),
    ("CCNC(=O)c1cccc(NC(=O)c2sc(C(C)(C)C)nc2CC)c1 [Compound 210]", 80),
    ("CCn1nc(C(C)(C)C)cc1C(=O)Nc1cccc(SC(F)(F)F)c1 [Compound 130]", 90),
    ("CCNC(=O)c1cccc(NC(=O)c2sc(C(C)(C)C)nc2CC)n1 [Compound 213]", 60),
    ("CC(=NO)c1cccc(NC(=O)c2cc(C(C)(C)C)nn2CCF)c1 [Compound 115]", 100),
    ("C=Cn1nc(C(C)(C)C)cc1C(=O)Nc1cccc(C(C)=NO)c1 [Compound 114]", 90),
    ("CCOC(=O)c1cccc(NC(=O)c2cc(C(C)(C)C)nn2CC)c1C [Compound 88]", 95),
]

---

Each entry below lists one item and its recorded Velvetleaf plant response rating value.
System: velvetleaf
Test: Test B pre-/postemergence herbicide test
Assay type: in vivo, Abutilon theophrasti
Settings: 125 g ai/ha; visual rating, scale 0 (no effect) to 100 (complete control); postemergence
Reported Metric: Velvetleaf plant response rating

# Molecule Smiles, Meas Value
measured = [
    ("CCOC(=O)c1ccc(F)c(NC(=O)c2nn(C(C)(C)CC)nc2CC)c1", 20),
    ("CCc1nn(C(C)(C)C)nc1C(=S)Nc1cccc(C(=S)N(C)C)c1", 20),
    ("Cc1nn(C(C)C)nc1C(=O)Nc1cccc(C(=O)N2CC=CC2)c1", 20),
]
